Provenance of the data: PubChem BioAssay (NCI)

Measured TGI, listed per entry for reference.
# Test system: SK-OV-3 ovarian
# assayText: NCI tumour cell line growth inhibition, 48 h

{"molecule": "CNS(=O)(=O)OCC1OC(n2cnc3c(N)ncnc32)C(O)C1O (stereo not given)", "TGI": "> 100 µM"}
{"molecule": "CCn1c2ccccc2c2ccc(C3C(C(=O)OC)=C(C)NC(C)=C3C(=O)OC)cc21", "TGI": "> 100 µM"}
{"molecule": "CC(C)(C)OC(=O)Cn1ncn(NC(=O)Cc2ccccc2)c1=O", "TGI": "> 10 µM"}
{"molecule": "CCCC1(CCC)c2cc(/C=N\\O)ccc2-c2ccc(-c3ccc(C(C)(C)C)cc3)cc21", "TGI": "> 100 µM"}
{"molecule": "Cc1ccc(S(=O)(=O)N/N=C2/CC3CCC4CC2CC34)cc1 (stereo not given)", "TGI": "> 100 µM"}
{"molecule": "O=C(Nc1sccc1S(=O)(=O)c1ccccc1)c1ccccc1", "TGI": "> 100 µM"}
{"molecule": "O=S(=O)(O)Oc1cc2c(c(OS(=O)(=O)O)c1)C[C@H](OS(=O)(=O)O)[C@@H](c1ccc(OS(=O)(=O)O)c(OS(=O)(=O)O)c1)O2", "TGI": "> 100 µM"}
{"molecule": "N#Cc1ccc2cc3c(cc2c1)OCO3", "TGI": "> 100 µM"}
{"molecule": "O=C(C[P+](c1ccccc1)(c1ccccc1)c1ccccc1)C[P+](c1ccccc1)(c1ccccc1)c1ccccc1", "TGI": "3.17 µM"}
{"molecule": "O=C1CCCCC/C1=C\\c1ccccc1", "TGI": "> 100 µM"}
